The measurements presented in this section are drawn from PubChem BioAssay (NCATS).

experiment: VSVG counterscreen qHTS to identify inhibitors of SARS-CoV-2 cell entry (AID 1645847); note: nearly all actives have a fitted effect of over 65% in size
conditionDetails: VSV-G pseudotyped particle entry, luciferase; series mostly up to 57.2 µM
Inconclusive results are not listed. Activity calls are given as the source filed them. Calls come from the whole dose curve.
Pick one and only one: 1 (yes) = active, 0 (no) = inactive

CC(C)c1nn(-c2c(Cl)cccc2Cl)c2nc(Cc3ccc(OCCO)cc3)[nH]c(=O)c12 ... 1 (yes)
CCN(CC)CCOCCOC(=O)C(CC)(CC)c1ccccc1 ... 0 (no)
O=C(NCCCCN1CCOCC1)c1cc2ccccc2o1 ... 0 (no)
COC(=O)C[C@](O)(CCCC(C)(C)O)C(=O)O[C@@H]1C(OC)=C[C@]23CCCN2CCc2cc4c(cc2[C@H]13)OCO4 ... 1 (yes)
CC(C)[C@H](CO)Nc1nc(Nc2cccc(Cl)c2)c2ncn(C(C)C)c2n1 ... 1 (yes)

Please find the next compound below.
Prompt: Which result was noted for this compound in the test: `O=C1NCCc2[nH]c(-c3ccncc3)cc21`
Response: 1 (yes)

###

Tested on: HACAT
experiment: qHTS assay to identify novel small-molecules to repurpose for Merkel cell carcinoma treatment (AID 1296009); note: nearly all actives have a fitted effect of over 60% in size
conditionDetails: MCC and control cell lines, CellTiter-Glo viability, 72 h; at 44.8 µM (top of the series) unless noted
Inconclusive results are not listed. Calls of active or inactive are those of the source. Calls come from the whole dose curve; as a rule, active = well fitted inhibition curve with a large enough effect; inconclusive = small, poorly fitted or top-dose-only effect; inactive = flat fitted curve, though single readings scatter.
parameter: outcome

Illustrative cases are given below, each with its answer.
Clc1ccc([C@]23CNC[C@H]2C3)cc1Cl ... inactive
CN1CCC2=C(C1)c1ccccc1Cc1ccccc12 ... inactive
CC(=O)OC[C@]12[C@H](OC(C)=O)C(=O)[C@@H]3[C@@H](O)[C@@]14O[C@@]3(C)COC(=O)c1cccnc1[C@@H](C)[C@H](C)C(=O)O[C@@H]([C@H](OC(C)=O)[C@@H]2OC(C)=O)[C@]4(C)O ... inactive [at 17.4 µM]
Cc1ccc2c(c1)[C@H]1CN(C)CC[C@H]1N2C(=O)CSc1nnnn1-c1ccc(Cl)cc1 ... inactive
CCC1NC(=O)C2C(Cl)C(Cl)CN2C(=O)C(CC)NC(=O)CC(c2ccccc2)NC(=O)C(CO)NC1=O (configuration not stated) ... inactive [at 17.4 µM]

Then there is this compound:
Prompt: Look up and report measured outcome for this entry: `Cc1ncc(OC[C@@]2(c3cccc(F)c3)C[C@H]2C(=O)Nc2ccc(F)cn2)c(C)n1`
Response: inactive

###

experiment: qHTS for Inhibitors of the Functional Ribonucleoprotein Complex (vRNP) of Lassa (LASV) Arenavirus: Viability assay - alamar blue signal for LASV Primary Screen (AID 1347083); note: nearly all actives have a fitted effect of over 80% in size
conditionDetails: cell viability, alamar blue fluorescence (LASV minigenome counter-screen); series mostly up to 57.5 µM
Results filed as inconclusive are left out. Calls of active or inactive are those of the source. Calls come from the whole dose curve; tested in HEK293 reporter line.
The reply should name one outcome from Yes = active, No = inactive

These solved cases illustrate the format of a correct answer.
CC(C)=CC[C@@H](O)C1=CC(=O)c2c(O)ccc(O)c2C1=O ... No
O=C(O)Cc1c[nH]c2ccc(O)cc12 ... No
Cc1cnc(Nc2ccc(CN3CCOCC3)cc2)nc1Nc1cccc(S(=O)(=O)NC(C)(C)C)c1 ... Yes
CC(C)Oc1ccc(C(=O)N[C@H](CNC(=O)CN(C)C)Cc2ccc(-c3cn4cccc([C@H](C)O)c4n3)cc2)cc1Cl ... Yes
c1ccc(CNc2nc(N3CCOc4ccccc43)nc3c2CCCC3)cc1 ... No
N[C@@H](Cc1cnc[nH]1)C(=O)O ... No
CCOC(=O)C1=C(N)Oc2ccc(Br)cc2C1C(C#N)C(=O)OCC (stereo unspecified) ... No
CCN1C[C@]2(CO)CC[C@H](OC)[C@@]34C5C[C@H]6[C@H](OC)C5[C@](O)(C[C@H]6OC)[C@@](O)(C(OC)C23)[C@@H]14 (stereo partly specified) ... No

Please look at the following compound next.
Prompt: GET /call?item= `O=C1CCCC(=O)C1C(=O)c1ccc(C(F)(F)F)cc1[N+](=O)[O-]` returns the recorded outcome of this test.
Response: No
